Item-by-item account of PL-017 shift
Organism: Cavia porcellus
Assay procedure: Evaluated for antagonist activity as the rightward fold shift of dose response curve of the known agonist PL-017 in Guinea pig ileum (GPI) at 1 uM concentration of compound
Type: functional
Bridge positions count the residues as written; N and C are the ends. Square brackets hold non-standard residues; d marks the D form. Peptide text beside a SMILES is read from it. dTic = O=C(O)[C@H]1Cc2ccccc2CN1; Pen = CC(C)(S)[C@H](N)C(=O)O
Field format: numeric only.

molecule="C[C@@H](O)[C@H](NC(=O)[C@H]1NC(=O)[C@H]([C@@H](C)O)NC(=O)[C@H](CCCN=C(N)N)NC(=O)[C@@H](Cc2c[nH]c3ccccc23)NC(=O)[C@H](Cc2ccc(O)cc2)NC(=O)[C@@H](NC(=O)[C@H]2Cc3ccccc3CN2)CSSC1(C)C)C(N)=O (H-[dTic]CY[dW]RT[Pen]T-NH2; disulfide 2-7)" assay_value=60
molecule=C[C@@H](O)[C@H](NC(=O)[C@H]1NC(=O)[C@H]([C@@H](C)O)NC(=O)[C@H](CCCN=C(N)N)NC(=O)[C@@H](Cc2c[nH]c3ccccc23)NC(=O)[C@H](Cc2ccc(O)cc2)NC(=O)[C@@H](NC(=O)[C@@H](N)[C@@H](C)c2ccccc2)CSSC1(C)C)C(N)=O assay_value=1
molecule=C[C@@H](O)[C@H](NC(=O)[C@H]1NC(=O)[C@H]([C@@H](C)O)NC(=O)[C@H](CCCN=C(N)N)NC(=O)[C@@H](Cc2c[nH]c3ccccc23)NC(=O)[C@H](Cc2ccc(O)cc2)NC(=O)[C@@H](NC(=O)[C@H](N)[C@@H](C)c2ccccc2)CSSC1(C)C)C(N)=O assay_value=15
molecule=C[C@H](c1ccccc1)[C@@H](N)C(=O)N[C@H]1CSSC(C)(C)[C@@H](C(=O)N[C@H](C(N)=O)[C@@H](C)O)NC(=O)[C@H]([C@@H](C)O)NC(=O)[C@H](CCCN=C(N)N)NC(=O)[C@@H](Cc2c[nH]c3ccccc23)NC(=O)[C@H](Cc2ccc(O)cc2)NC1=O assay_value=19
molecule=C[C@@H](O)[C@H](NC(=O)[C@H]1NC(=O)[C@H]([C@@H](C)O)NC(=O)[C@H](CCCNC(=N)N)NC(=O)[C@@H](Cc2c[nH]c3ccccc23)NC(=O)[C@H](Cc2ccc(O)cc2)NC(=O)[C@@H](NC(=O)[C@H](N)Cc2ccccc2)CSSC1(C)C)C(N)=O assay_value=55
molecule=C[C@H](c1c[nH]c2ccccc12)[C@H](N)C(=O)N[C@H]1CSSC(C)(C)[C@@H](C(=O)N[C@H](C(N)=O)[C@@H](C)O)NC(=O)[C@H]([C@@H](C)O)NC(=O)[C@H](CCCN=C(N)N)NC(=O)[C@@H](Cc2c[nH]c3ccccc23)NC(=O)[C@H](Cc2ccc(O)cc2)NC1=O assay_value=1

Okay, next one:
// Input: C[C@@H](O)[C@H](NC(=O)[C@H]1NC(=O)[C@H]([C@@H](C)O)NC(=O)[C@H](CCCN=C(N)N)NC(=O)[C@@H](Cc2c[nH]c3ccccc23)NC(=O)[C@H](Cc2ccc(O)cc2)NC(=O)[C@@H](NC(=O)[C@H](N)Cc2c[nH]c3ccccc23)CSSC1(C)C)C(N)=O . Output its PL-017 shift only.
1

---

PL-017 shift reference
Species: Cavia porcellus
Assay procedure: Evaluated for antagonist activity as the rightward fold shift of dose response curve of the known agonist PL-017 in Guinea pig ileum (GPI) at 1 uM concentration of compound
Type: functional
Form field (numeric): enter value without unit.

Below are worked cases with known answers.
molecule_smiles=C[C@@H](O)[C@H](NC(=O)[C@H]1NC(=O)[C@H]([C@@H](C)O)NC(=O)[C@H](CCCN=C(N)N)NC(=O)[C@@H](Cc2c[nH]c3ccccc23)NC(=O)[C@H](Cc2ccc(O)cc2)NC(=O)[C@@H](NC(=O)[C@H](N)[C@@H](C)c2c[nH]c3ccccc23)CSSC1(C)C)C(N)=O property_measured="PL-017 shift" assay_value=68
molecule_smiles=C[C@@H](O)[C@H](NC(=O)[C@H]1NC(=O)[C@H]([C@@H](C)O)NC(=O)[C@H](CCCN=C(N)N)NC(=O)[C@@H](Cc2c[nH]c3ccccc23)NC(=O)[C@H](Cc2ccc(O)cc2)NC(=O)[C@@H](NC(=O)[C@@H](N)[C@@H](C)c2c[nH]c3ccccc23)CSSC1(C)C)C(N)=O property_measured="PL-017 shift" assay_value=2.6
molecule_smiles=C[C@H](c1c[nH]c2ccccc12)[C@@H](N)C(=O)N[C@H]1CSSC(C)(C)[C@@H](C(=O)N[C@H](C(N)=O)[C@@H](C)O)NC(=O)[C@H]([C@@H](C)O)NC(=O)[C@H](CCCN=C(N)N)NC(=O)[C@@H](Cc2c[nH]c3ccccc23)NC(=O)[C@H](Cc2ccc(O)cc2)NC1=O property_measured="PL-017 shift" assay_value=39

Next:
# return recorded PL-017 shift for input C[C@@H](O)[C@H](NC(=O)[C@H]1NC(=O)[C@H]([C@@H](C)O)NC(=O)[C@H](CCCN=C(N)N)NC(=O)[C@@H](Cc2c[nH]c3ccccc23)NC(=O)[C@H](Cc2ccc(O)cc2)NC(=O)[C@@H](NC(=O)[C@H]2Cc3c([nH]c4ccccc34)CN2)CSSC1(C)C)C(N)=O
1.2

---

Recorded measurements of IC50, one per entry
Study target: Mu-type opioid receptor (Rattus norvegicus, UniProt P33535)
Sequence (P33535 whole entry): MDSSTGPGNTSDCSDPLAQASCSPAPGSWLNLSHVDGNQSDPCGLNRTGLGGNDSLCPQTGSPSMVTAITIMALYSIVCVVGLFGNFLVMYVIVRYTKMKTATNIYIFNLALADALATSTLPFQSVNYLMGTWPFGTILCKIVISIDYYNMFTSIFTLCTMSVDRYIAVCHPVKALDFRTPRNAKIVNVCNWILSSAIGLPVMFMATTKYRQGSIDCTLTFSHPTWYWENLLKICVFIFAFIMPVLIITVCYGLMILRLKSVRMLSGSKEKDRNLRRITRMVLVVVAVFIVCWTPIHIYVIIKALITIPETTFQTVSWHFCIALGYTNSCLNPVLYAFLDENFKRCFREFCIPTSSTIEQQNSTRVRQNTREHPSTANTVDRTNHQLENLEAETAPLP
# do not omit the unit; it follows the number

Example results:
molecule_smiles=C[C@@H](O)[C@H](NC(=O)[C@H]1NC(=O)[C@H]([C@@H](C)O)NC(=O)[C@H](CCCN=C(N)N)NC(=O)[C@@H](Cc2c[nH]c3ccccc23)NC(=O)[C@H](Cc2ccc(O)cc2)NC(=O)[C@@H](NC(=O)[C@H]2Cc3c([nH]c4ccccc34)CN2)CSSC1(C)C)C(N)=O assay_value="173 nM"
molecule_smiles=C[C@H](c1c[nH]c2ccccc12)[C@H](N)C(=O)N[C@H]1CSSC(C)(C)[C@@H](C(=O)N[C@H](C(N)=O)[C@@H](C)O)NC(=O)[C@H]([C@@H](C)O)NC(=O)[C@H](CCCNC(=N)N)NC(=O)[C@@H](Cc2c[nH]c3ccccc23)NC(=O)[C@H](Cc2ccc(O)cc2)NC1=O assay_value="3400 nM"

Now turn to the next molecule.
State IC50 on Mu-type opioid receptor (Rattus norvegicus, UniProt P33535). Entry: C[C@H](c1c[nH]c2ccccc12)[C@@H](N)C(=O)N[C@H]1CSSC(C)(C)[C@@H](C(=O)N[C@H](C(N)=O)[C@@H](C)O)NC(=O)[C@H]([C@@H](C)O)NC(=O)[C@H](CCCNC(=N)N)NC(=O)[C@@H](Cc2c[nH]c3ccccc23)NC(=O)[C@H](Cc2ccc(O)cc2)NC1=O
18.7 nM

---

Study target: Delta-type opioid receptor (Rattus norvegicus, UniProt P33533)
Sequence (P33533 whole entry): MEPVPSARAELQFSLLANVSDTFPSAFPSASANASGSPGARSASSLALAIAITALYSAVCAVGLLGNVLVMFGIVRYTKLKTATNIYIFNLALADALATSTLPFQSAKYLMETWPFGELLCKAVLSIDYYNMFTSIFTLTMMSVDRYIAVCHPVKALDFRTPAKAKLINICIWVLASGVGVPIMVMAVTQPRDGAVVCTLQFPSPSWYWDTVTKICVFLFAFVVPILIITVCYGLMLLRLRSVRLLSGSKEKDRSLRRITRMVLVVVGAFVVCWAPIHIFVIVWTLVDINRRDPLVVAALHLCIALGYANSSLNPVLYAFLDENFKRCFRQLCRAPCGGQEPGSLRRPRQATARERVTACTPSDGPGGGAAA
Assay procedure: Binding affinity for rat brain Opioid receptor delta 1
Measured IC50 by item

molecule_smiles=C[C@@H](O)[C@H](NC(=O)[C@H]1NC(=O)[C@H]([C@@H](C)O)NC(=O)[C@H](CCCNC(=N)N)NC(=O)[C@@H](Cc2c[nH]c3ccccc23)NC(=O)[C@H](Cc2ccc(O)cc2)NC(=O)[C@@H](NC(=O)[C@@H](N)[C@@H](C)c2ccccc2)CSSC1(C)C)C(N)=O assay_value="> 15 µM"
molecule_smiles=C[C@H](c1c[nH]c2ccccc12)[C@H](N)C(=O)N[C@H]1CSSC(C)(C)[C@@H](C(=O)N[C@H](C(N)=O)[C@@H](C)O)NC(=O)[C@H]([C@@H](C)O)NC(=O)[C@H](CCCNC(=N)N)NC(=O)[C@@H](Cc2c[nH]c3ccccc23)NC(=O)[C@H](Cc2ccc(O)cc2)NC1=O assay_value="7.46 µM"
molecule_smiles=C[C@@H](O)[C@H](NC(=O)[C@H]1NC(=O)[C@H]([C@@H](C)O)NC(=O)[C@H](CCCN=C(N)N)NC(=O)[C@@H](Cc2c[nH]c3ccccc23)NC(=O)[C@H](Cc2ccc(O)cc2)NC(=O)[C@@H](NC(=O)[C@H](N)[C@@H](C)c2ccccc2)CSSC1(C)C)C(N)=O assay_value="1.32 µM"
molecule_smiles=C[C@H](c1c[nH]c2ccccc12)[C@@H](N)C(=O)N[C@H]1CSSC(C)(C)[C@@H](C(=O)N[C@H](C(N)=O)[C@@H](C)O)NC(=O)[C@H]([C@@H](C)O)NC(=O)[C@H](CCCNC(=N)N)NC(=O)[C@@H](Cc2c[nH]c3ccccc23)NC(=O)[C@H](Cc2ccc(O)cc2)NC1=O assay_value="3.64 µM"
molecule_smiles=C[C@@H](O)[C@H](NC(=O)[C@H]1NC(=O)[C@H]([C@@H](C)O)NC(=O)[C@H](CCCNC(=N)N)NC(=O)[C@@H](Cc2c[nH]c3ccccc23)NC(=O)[C@H](Cc2ccc(O)cc2)NC(=O)[C@@H](NC(=O)[C@H](N)[C@@H](C)c2c[nH]c3ccccc23)CSSC1(C)C)C(N)=O assay_value="7.48 µM"

Output reported IC50 of the molecule C[C@H](c1ccccc1)[C@@H](N)C(=O)N[C@H]1CSSC(C)(C)[C@@H](C(=O)N[C@H](C(N)=O)[C@@H](C)O)NC(=O)[C@H]([C@@H](C)O)NC(=O)[C@H](CCCN=C(N)N)NC(=O)[C@@H](Cc2c[nH]c3ccccc23)NC(=O)[C@H](Cc2ccc(O)cc2)NC1=O on Delta-type opioid receptor (Rattus norvegicus, UniProt P33533).
1.19 µM

Name the recorded IC50 of C[C@@H](O)[C@H](NC(=O)[C@H]1NC(=O)[C@H]([C@@H](C)O)NC(=O)[C@H](CCCN=C(N)N)NC(=O)[C@@H](Cc2c[nH]c3ccccc23)NC(=O)[C@H](Cc2ccc(O)cc2)NC(=O)[C@@H](NC(=O)[C@H]2Cc3c([nH]c4ccccc34)CN2)CSSC1(C)C)C(N)=O , assay system Delta-type opioid receptor (Rattus norvegicus, UniProt P33533).
0.211 µM

State recorded IC50 with Delta-type opioid receptor (Rattus norvegicus, UniProt P33533), entry C[C@@H](O)[C@H](NC(=O)[C@H]1NC(=O)[C@H]([C@@H](C)O)NC(=O)[C@H](CCCNC(=N)N)NC(=O)[C@@H](Cc2c[nH]c3ccccc23)NC(=O)[C@H](Cc2ccc(O)cc2)NC(=O)[C@@H](NC(=O)[C@@H](N)[C@@H](C)c2c[nH]c3ccccc23)CSSC1(C)C)C(N)=O , no comment.
9.18 µM

Find IC50 for C[C@@H](O)[C@H](NC(=O)[C@H]1NC(=O)[C@H]([C@@H](C)O)NC(=O)[C@H](CCCN=C(N)N)NC(=O)[C@@H](Cc2c[nH]c3ccccc23)NC(=O)[C@H](Cc2ccc(O)cc2)NC(=O)[C@@H](NC(=O)[C@H](N)Cc2c[nH]c3ccccc23)CSSC1(C)C)C(N)=O on Delta-type opioid receptor (Rattus norvegicus, UniProt P33533) and write it down.
3.53 µM

Please report the measured IC50 for C[C@H](c1ccccc1)[C@H](N)C(=O)N[C@H]1CSSC(C)(C)[C@@H](C(=O)N[C@H](C(N)=O)[C@@H](C)O)NC(=O)[C@H]([C@@H](C)O)NC(=O)[C@H](CCCN=C(N)N)NC(=O)[C@@H](Cc2c[nH]c3ccccc23)NC(=O)[C@H](Cc2ccc(O)cc2)NC1=O tested on Delta-type opioid receptor (Rattus norvegicus, UniProt P33533).
13.2 µM
